Test system: L. amazonensis promastigotes
Assay: Reactive oxygen species detection (CellROX Deep Red)
Type: cell-based, Leishmania amazonensis
Conditions: IC90 of the compounds, 24 h
PARAMETER_MEASURED: ROS accumulation (CellROX Deep Red fluorescence)

> print(dat)
                           structure.string               result
1  O=C(Nc1ccc(N2CCNCC2)cc1)c1ccn2ncc(-c3cccc(Cl)c3)c2n1  accumulation of ROS
2     c1ccc(-c2nc(NC3CCCCC3)cc(C3CC3)n2)nc1  accumulation of ROS
3  CN1CCC(NCc2cccc(-c3ccc(S(=O)(=O)NCc4ccccc4)cc3)c2)CC1  accumulation of ROS
